# experimental details: chemical genetic growth profiling, strain panel (AID 1159580);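 note: tested at 20 µM; growth read once vehicle control cultures reached saturation at 30 °C; 1 = growth at the plate median or of vehicle wells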
# settings: S. cerevisiae deletion strains, growth OD, locus YOL136C, strain PFK27, hits give low values
About 2,000 (36%) of roughly 5,500 compounds were called active. Not shown: some 18% with an inconclusive outcome. Some of the results follow.
// NB: equality with 0.6 counts as 0 (no); only normalized growth strictly below is 1 (yes)

Use the examples below as a reference point.
- compound: "N#CC(C#N)=NNc1ccc(C(F)(F)F)cc1"
  qualitative label: "1 (yes)"
- compound: "Cc1c(C(=O)NCCNc2ccc(C(F)(F)F)cc2[N+](=O)[O-])cnn1-c1ccc(F)cc1"
  qualitative label: "0 (no)"
- compound: "N#CC(C#N)=NNc1cc(C(F)(F)F)ccc1OCC(F)(F)F"
  qualitative label: "0 (no)"
- compound: "CC(=O)Oc1ccc2c(=O)c(Oc3ccc(Cl)cc3)c(C)oc2c1"
  qualitative label: "0 (no)"
- compound: "N#CC(C#N)=NNc1ccc(-n2ccc(C(F)(F)F)n2)cc1"
  qualitative label: "1 (yes)"

Query: Bench note: check whether COC(=O)c1ccc(Oc2c(C(F)(F)F)oc3cc(O)ccc3c2=O)cc1 shows normalized growth below 0.6
Result: 0 (no)

Query: Determine whether this compound shows normalized growth lower than 0.6 (ties excluded): CN(C)c1nc(=S)ss1
Result: 1 (yes)

Query: In plain terms, does O=C(NNc1c(Cl)cccc1Cl)c1ccc([N+](=O)[O-])o1 come in under 0.6 for normalized growth?
Result: 0 (no)

Query: In plain terms, does N#C/C(=N/Nc1ccc(C(F)(F)F)cc1)C(=O)C1CC1 come in under 0.6 for normalized growth?
Result: 0 (no)

Query: Record CCOC(=O)C(NC(C)=O)(Nc1ccc(F)c(Cl)c1)C(F)(F)F (stereo not given) : is its normalized growth strictly below 0.6?
Result: 0 (no)

Query: Threshold test, normalized growth < 0.6: Cc1c(Cl)cccc1N=C1SCC(=O)N1Cc1ccco1
Result: 0 (no)

Query: Is normalized growth strictly under 0.6 for the entry CC(C)(C)c1cc(C(=O)/C(C#N)=N\Nc2ccc(Cl)cc2)no1 ?
Result: 1 (yes)

Query: Quick check: normalized growth of O=C1OC(Nc2ccccc2SCc2ccccc2Cl)c2ccccc21 (stereo not given) under 0.6?
Result: 0 (no)

Query: Could you please tell me whether normalized growth recorded for O=C1CSC(=Nc2cc(Cl)cc(Cl)c2)N1Cc1cccnc1 is less than 0.6?
Result: 0 (no)

---

// reported normalized growth for each item listed
# experimental details: chemical genetic growth profiling, strain panel (AID 1159580)
# settings: S. cerevisiae deletion strains, growth OD, locus YLL001W, strain dnm1, hits give low values
Hit rate of the full screen: of about 5,500 compounds, about 2,000 (36%) were called active. Not shown: some 18% with an inconclusive outcome. The list shows a part of the results.
Please give only the number in your answer, with no unit.

Some molecules with recorded normalized growth:
- compound: "CC(C)=CCOc1c2occc2cc2ccc(=O)oc12"
  normalized growth: 0.862
- compound: "O=c1n(CCCN2CCN(c3cccc(Cl)c3)CC2)nc2ccccn12"
  normalized growth: 0.986
- compound: "COc1cc2ccc(=O)oc2cc1O"
  normalized growth: 1

Query: What value of normalized growth has been reported for the following molecule? N#C/C(=C\c1ccc(O)cc1)C(=O)O
Result: 0.994

Query: Fill in: normalized growth of CN1CCN(CCCN2c3ccccc3Sc3ccc(Cl)cc32)CC1 is ___
Result: 0.959

Query: Quick one: normalized growth of COc1ccc2c(c1)[nH]c1c(C)nccc12 ?
Result: 0.987

Query: Would you mind telling me what normalized growth value was observed for c1ccc2c(c1)[nH]c1cnccc12 ?
Result: 1

---

# experimental details: chemical genetic growth profiling, strain panel (AID 1159580)
# settings: S. cerevisiae deletion strains, growth OD, locus YJL128C, strain PBS2
Screen size: about 5,500 compounds; about 2,000 (36%) were called active. Inconclusive results (about 18%) are left out. Cut-off read from the data, not from the text of the source: active = normalized growth mostly below about 0.91 (no sharp cut-off); inconclusive = no clear call, values can overlap the other calls; inactive = mostly above about 0.92. The list shows a part of the results.
Answer with one of the outcomes given here: active, inactive

Examples from the recorded data:
- compound: "N#C/C(=N/Nc1ccc(Cl)cc1)C(N)=S"
  qualitative label: "active"
- compound: "O=C(NCc1ccc(F)c(Cl)c1)Nc1csc([N+](=O)[O-])c1"
  qualitative label: "inactive"
- compound: "CCOC(=O)C(O)(c1ccc(NC(=O)Nc2ccc(Cl)cc2)cc1)C(F)(F)F (configuration not stated)"
  qualitative label: "inactive"
- compound: "CC(C)(C)c1cc(C(=O)/C(C#N)=N\\Nc2ccc(Cl)cc2)no1"
  qualitative label: "active"
- compound: "CSc1sc(-c2ccn[nH]2)c(-c2ccccc2)c1C#N"
  qualitative label: "inactive"
- compound: "Cc1oc(-c2ccc(Cl)cc2)cc1C(=O)N1CCN(c2ccc(C(F)(F)F)cn2)CC1"
  qualitative label: "inactive"
- compound: "Cc1ccc(C(=O)Nc2ccc3ccccc3n2)cc1"
  qualitative label: "inactive"
- compound: "N#C/C(=N/Nc1ccc(Cl)cc1)C(=O)C1CC1"
  qualitative label: "inactive"
- compound: "Cc1nc(C(F)(F)F)ccc1-c1nnc(SC(=O)c2ccc(Cl)cc2)o1"
  qualitative label: "active"
- compound: "FC(F)(F)c1ccc(NC(=S)Nc2ccc(C(F)(F)F)cc2Cl)c(Cl)c1"
  qualitative label: "inactive"

Query: Record lookup: outcome of this test for Cc1nc(C(F)(F)F)ccc1C(=O)Sc1nnc(-c2ccc(C(F)(F)F)nc2C)o1 ?
Result: inactive

Query: Which outcome was assigned to COc1cc(OC)cc(/C(N)=N\O)c1 in this test?
Result: inactive

---

# experimental details: chemical genetic growth profiling, strain panel (AID 1159580);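 note: tested at 20 µM; growth read once vehicle control cultures reached saturation at 30 °C; 1 = growth at the plate median or of vehicle wells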
# settings: S. cerevisiae deletion strains, growth OD, locus YPR106W, strain ISR1
In all, about 5,500 compounds went through this assay and about 2,000 (36%) were called active. Roughly 18% stayed inconclusive and do not appear here. Cut-off read from the data, not from the text of the source: active = normalized growth mostly below about 0.91 (no sharp cut-off); inconclusive = no clear call, values can overlap the other calls; inactive = mostly above about 0.92. The list shows a part of the results.
// one of true (1) (active), false (0) (inactive), no free text

Worked set:
- compound: "CCOC(=O)C(O)(c1ccc(NC(=O)Nc2ccc(Cl)cc2)cc1)C(F)(F)F (stereo not drawn)"
  qualitative label: "false (0)"
- compound: "CC1CCc2c(sc3ncnc(Sc4ccccc4)c23)C1 (stereo not drawn)"
  qualitative label: "false (0)"
- compound: "Cc1c(C(=O)NCCNc2ccc(C(F)(F)F)cc2[N+](=O)[O-])cnn1-c1ccc(F)cc1"
  qualitative label: "false (0)"
- compound: "CC(NC(=S)Nc1ccc(Oc2ccc(Cl)cc2)cc1)c1ccccc1 (stereo not drawn)"
  qualitative label: "false (0)"
- compound: "CCOC(=O)C1C(c2ccc(Br)cc2)C(C(=O)OCC)C(O)(C(F)(F)F)NC1(O)C(F)(F)F (stereo not drawn)"
  qualitative label: "false (0)"

Query: Hi, do you know how N#CC(C#N)=NNc1ccc(C(F)(F)F)cc1 came out in this test?
Result: true (1)

Query: Can you look up the reported call for CN(C)c1nc(=S)ss1 for me?
Result: false (0)

Query: State the result this test recorded for NNC(=O)COc1ccc(C2SCCS2)cc1 .
Result: true (1)

Query: Call for entry Nc1ccccc1C(=O)N/N=C\c1cc(Cl)cc(Cl)c1O :
Result: false (0)

Query: Would you mind telling me which call this test gave N#C/C(=C\C=C\c1ccccc1)c1nc2ccccc2[nH]1 ?
Result: false (0)

Query: # outcome recorded in this test, key = O=C(SCc1c(Cl)cccc1Cl)c1ccc([N+](=O)[O-])o1
Result: false (0)

Query: In this assay, the call recorded for CSc1sc(-c2ccn[nH]2)c(-c2ccccc2)c1C#N was what?
Result: false (0)

---

Reported normalized growth values for the following compounds.
# experimental details: chemical genetic growth profiling, strain panel (AID 1159580);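 note: tested at 20 µM; growth read once vehicle control cultures reached saturation at 30 °C; 1 = growth at the plate median or of vehicle wells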
# settings: S. cerevisiae deletion strains, growth OD, locus YLR371W, strain rom2, hits give low values
The campaign covered roughly 5,500 compounds. About 2,000 (36%) were called active. Another 18% or so got no clear call; they are omitted. This is one part of the list.
Reply briefly: the number, and no unit.

Known results for compounds:
- compound: "O=[N+]([O-])/N=C1/NCCN1Cc1ccc(Cl)cc1"
  normalized growth: 0.987
- compound: "CCNc1nc(Cl)nc(NC(C)C)n1"
  normalized growth: 1.02
- compound: "COc1c2occc2cc2ccc(=O)oc12"
  normalized growth: 0.969

Query: Form field: reported normalized growth of CN1CCN(C(c2ccccc2)c2ccccc2)CC1
Result: 0.974

Query: Given N#C/C(=C\c1ccc(O)cc1)C(=O)O , state its recorded normalized growth.
Result: 1.01

---

# experimental details: chemical genetic growth profiling, strain panel (AID 1159580);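 note: tested at 20 µM; growth read once vehicle control cultures reached saturation at 30 °C; 1 = growth at the plate median or of vehicle wells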
# settings: S. cerevisiae deletion strains, growth OD, locus YLR268W, strain sec22
The whole screen tested about 5,500 compounds, of which about 2,000 (36%) were called active. Inconclusive results (about 18%) are left out. Rule as the data show it: active = normalized growth mostly below about 0.91 (no sharp cut-off); inconclusive = no clear call, values can overlap the other calls; inactive = mostly above about 0.92. This is one part of the list.
Hi there, use one of these labels in your reply, thanks! active, inactive

These recorded examples may help you get a feel for the data.
- compound: "CCN(CC)CCNC(=O)COc1ccc(OC)cc1"
  qualitative label: "inactive"
- compound: "C=C(C)c1cc2cc(C(C)=O)c(O)cc2o1"
  qualitative label: "inactive"
- compound: "c1coc(CNc2ncnc3nc[nH]c23)c1"
  qualitative label: "inactive"

Query: Hi, sorry to bother you, what did the test record for CC(C)=CCC1=C(O)c2ccccc2C(=O)C1=O ?
Result: active

Query: Write down the call the test reported for this compound. Item: N#Cc1ccc2c(c1)N(CCCN1CCC(O)CC1)c1ccccc1S2
Result: inactive

Query: Give the logged outcome of this assay for the following compound: O=c1n(CCCN2CCN(c3cccc(Cl)c3)CC2)nc2ccccn12
Result: inactive

Query: Please let me know the test result on file for Cn1cnc([N+](=O)[O-])c1Sc1ncnc2nc[nH]c12 .
Result: inactive

Query: Per the assay record, what outcome was assigned to CCCc1nc(C(C)(C)O)c(C(=O)OCc2oc(=O)oc2C)n1Cc1ccc(-c2ccccc2-c2nn[nH]n2)cc1 ?
Result: inactive

Query: Please let me know the test result on file for CC1(C)C[C@@H]2C(=O)CC[C@H]3O[C@]3(C)CC[C@H]21 .
Result: inactive

Query: How was CC1=C(C(=O)O)N2C(=O)[C@@H](NC(=O)[C@H](N)C3=CCC=CC3)C2SC1 (stereo not given in full) classified in this test?
Result: inactive

Query: Identify the outcome logged in this assay for the compound shown: CCS(=O)(=O)CCn1c([N+](=O)[O-])cnc1C
Result: inactive

Query: So what was the verdict on CCCC(=O)Nc1ncnc2c1ncn2C1O[C@@H]2COP(=O)(O)O[C@H]2[C@H]1OC(=O)CCC (stereo not given in full) in this test?
Result: inactive

Query: // param item: CNC(=O)CSP(=S)(OC)OC ; yields the recorded call
Result: inactive
